Every entry's value here was drawn from patent US5162328A.

Assay: Pharmacokinetics in dogs (plasma concentration by HPLC)
Type: in vivo, dog (beagle)
Conditions: dog, plasma, po, 2 mg/kg/day, Dog 1, day 1, 4 h; 2 mg/kg/day PO
endpoint: concentration at 4 h (ng/mL)
# output: bare number, implied unit ng/mL

get_value(item= c1cc(Nc2nccc(-c3cccs3)n2)cc(OCCn2ccnc2)c1 , readout=concentration at 4 h) returns 281

---

Assay: Pharmacokinetics in dogs (plasma concentration by HPLC)
Format: in vivo, dog (beagle)
Conditions: dog, plasma, po, 2 mg/kg/day, one dog (Dog 1), day 1; 2 mg/kg/day PO; read-out: AUC0-4
endpoint: AUC(0-t) at 4 h (ng·h/mL)
# output: bare number, implied unit ng·h/mL

get_value(item= CCN(CC)CCOc1ccc(Nc2nccc(-c3ccncc3)n2)cc1.Cl.Cl [Compound 3, reference compound] , readout=AUC(0-t) at 4 h) returns 302

---

Test: Pharmacokinetics in dogs (plasma concentration by HPLC)
Format: in vivo, dog (beagle)
Settings: dog, plasma, po, 2 mg/kg/day, Dog 4, day 3, 4 h; 2 mg/kg/day PO
endpoint: concentration at 4 h (ng/mL)
# output: bare number, implied unit ng/mL

get_value(item= c1cc(Nc2nccc(-c3cccs3)n2)cc(OCCn2ccnc2)c1 , readout=concentration at 4 h) returns 38

---

Assay: Pharmacokinetics in dogs (plasma concentration by HPLC)
Assay type: in vivo, dog (beagle)
Conditions: dog, plasma, po, 2 mg/kg/day, Dog 4, day 3; 2 mg/kg/day PO
endpoint: Cmax (ng/mL)

{"compound": "c1cc(Nc2nccc(-c3cccs3)n2)cc(OCCn2ccnc2)c1", "unit.info": "ng/mL", "Cmax": 220}
{"compound": "Cc1cc(Nc2nccc(-c3ccncc3)n2)ccc1N.Cl.Cl [Compound 2, reference compound]", "unit.info": "ng/mL", "Cmax": 283}

---

Assay: Pharmacokinetics in dogs (plasma concentration by HPLC)
Format: in vivo, dog (beagle)
Conditions: dog, plasma, po, 2 mg/kg/day, Dog 4, day 5, 12 h; 2 mg/kg/day PO
endpoint: concentration at 12 h

get_value(item= c1cc(Nc2nccc(-c3cccs3)n2)cc(OCCn2ccnc2)c1 , readout=concentration at 12 h) returns < 30 ng/mL

---

Test: Pharmacokinetics in dogs (plasma concentration by HPLC)
Type: in vivo, dog (beagle)
Conditions: dog, plasma, po, 2 mg/kg/day, Mean of 4 dogs, day 5, 2 h; 2 mg/kg/day PO
endpoint: concentration at 2 h (ng/mL)
# output: bare number, implied unit ng/mL

get_value(item= c1cc(Nc2nccc(-c3cccs3)n2)cc(OCCn2ccnc2)c1 , readout=concentration at 2 h) returns 212

---

Test: Pharmacokinetics in dogs (plasma concentration by HPLC)
Assay type: in vivo, dog (beagle)
Details: dog, plasma, po, 2 mg/kg/day, Dog 4, day 5, 2 h; 2 mg/kg/day PO
endpoint: concentration at 2 h (ng/mL)
# output: bare number, implied unit ng/mL

get_value(item= c1cc(Nc2nccc(-c3cccs3)n2)cc(OCCn2ccnc2)c1 , readout=concentration at 2 h) returns 197

---

Assay: Pharmacokinetics in dogs (plasma concentration by HPLC)
Type: in vivo, dog (beagle)
Settings: dog, plasma, po, 2 mg/kg/day, Mean of 4 dogs, day 5, 1 h; 2 mg/kg/day PO
endpoint: concentration at 1 h (ng/mL)

[a] Cc1cc(Nc2nccc(-c3ccncc3)n2)ccc1N.Cl.Cl [Compound 2, reference compound]
[b] c1cc(Nc2nccc(-c3cccs3)n2)cc(OCCn2ccnc2)c1
Which of these two has the smaller recorded concentration at 1 h: a or b ? Respond using the label that marks the chosen record.
a
